Test system: rice
Experiment: Low temperature assay on rice seedlings
Format: in vivo
Settings: 0.0001 mg/l, 2 °C, 12 days
Text: According to a low temperature assay, we measured parameters including plant height, number of leaf, area of leaf, number of tiller, weight of root at low temperature to completely determine effects of the natural brassinolide analogues on the resistance to low temperature of a plant. The natural brassinolide analogues, BR1, BR2, BR3, BR4, BR5 and BR6, used herein, were those prepared by the method of Example 1. […]
TEST READOUT: Weight of root (g)
I only need the number, in g, no unit after it.

Look over these answered cases.
// field: Weight of root; key: CC[C@@H](C(C)C)[C@@H](O)[C@H](O)[C@@H](C)[C@H]1CCC2C3COC(=O)C4C[C@H](O)[C@H](O)C[C@]4(C)C3CC[C@@]21C (stereo partly drawn) ; value = 3.9

The compound listed as CC(C)C[C@@H](O)[C@H](O)[C@@H](C)[C@H]1CCC2C3CC(=O)C4C[C@H](O)[C@H](O)C[C@]4(C)C3CC[C@@]21C (stereo partly drawn) has a reported Weight of root of 3.4

CC(C)[C@H](C)[C@@H](O)[C@H](O)[C@@H](C)[C@H]1CCC2C3COC(=O)C4C[C@H](O)[C@H](O)C[C@]4(C)C3CC[C@@]21C (stereo partly drawn) has a reported Weight of root of 3.9

More entries:
Kindly note the recorded Weight of root for CC(C)(O)CC[C@@H](O)[C@](C)(O)[C@H]1CC[C@@]2(O)[C@@H]3CC(=O)[C@@H]4C[C@@H](O)[C@@H](O)C[C@]4(C)[C@H]3CC[C@]12C , which is 3.9

Entry C=C(C(C)C)[C@@H](O)[C@H](O)[C@@H](C)[C@H]1CCC2C3COC(=O)C4C[C@H](O)[C@H](O)C[C@]4(C)C3CC[C@@]21C (stereo partly drawn) — recorded Weight of root = 3.9

Measured Weight of root of CC(C)[C@H](C)[C@@H](O)[C@H](O)[C@@H](C)[C@H]1CCC2C3CC(=O)C4C[C@H](O)CC[C@]4(C)C3CC[C@@]21C (stereo partly drawn) : 3.7

----------
Tested on: rice
Assay: Low temperature assay on rice seedlings
Type: in vivo
Details: 0.1 mg/l, 3 °C, 6 days
Quick list: Height per entry.
Give a bare numeral; the unit cm is implied.

Guide cases for Height, answers given:
Input CC(C)(O)CC[C@@H](O)[C@](C)(O)[C@H]1CC[C@@]2(O)[C@@H]3CC(=O)[C@@H]4C[C@@H](O)[C@@H](O)C[C@]4(C)[C@H]3CC[C@]12C . Output Height: 7.3

The compound listed as CC(C)[C@H](C)[C@@H](O)[C@H](O)[C@@H](C)[C@H]1CCC2C3COC(=O)C4C[C@H](O)[C@H](O)C[C@]4(C)C3CC[C@@]21C (stereo partly drawn) has a reported Height of 7.3

Height recorded for this compound, CC(C)C[C@@H](O)[C@H](O)[C@@H](C)[C@H]1CCC2C3CC(=O)C4C[C@H](O)[C@H](O)C[C@]4(C)C3CC[C@@]21C (stereo partly drawn) , is 7.4

Lookup result for CC[C@@H](C(C)C)[C@@H](O)[C@H](O)[C@@H](C)[C@H]1CCC2C3COC(=O)C4C[C@H](O)[C@H](O)C[C@]4(C)C3CC[C@@]21C (stereo partly drawn) ; measured Height: 7.4

Given item C=C(C(C)C)[C@@H](O)[C@H](O)[C@@H](C)[C@H]1CCC2C3COC(=O)C4C[C@H](O)[C@H](O)C[C@]4(C)C3CC[C@@]21C (stereo partly drawn) , the value recorded as its Height is 7.4

Others:
Query CC(C)[C@H](C)[C@@H](O)[C@H](O)[C@@H](C)[C@H]1CCC2C3CC(=O)C4C[C@H](O)CC[C@]4(C)C3CC[C@@]21C (stereo partly drawn) yields Height of 7.4
